Source of measurements: patent US4751227A

Tested on: Anesthetized Dog
Test: Effect of compounds on cardiac contractility, heart rate and blood pressure in Anesthetized Dog
Type: in vivo, mongrel dogs
Settings: 30 μg/kg, intravenous
We begin with a simple list: items and their reported Change in Cardiac Contractility (LV dp/dt max).
Measured Parameter: Change in Cardiac Contractility (LV dp/dt max) (%)

Molecule	Target Or Test System	Unit Name	Reported
Cc1cn2cc(-c3cc(C#N)c(=O)[nH]c3C)ccc2n1 [Example 7]	Anesthetized Dog	%	114
CCc1[nH]c(=O)c(C#N)cc1-c1ccc2nccn2c1 [Example 6]	Anesthetized Dog	%	30
Cc1[nH]c(=O)ccc1-c1ccc2nccn2c1 [Example 10]	Anesthetized Dog	%	25
Cc1[nH]c(=O)c(C#N)cc1-c1ccc2nccn2c1 [Example 1]	Anesthetized Dog	%	68
